Give measured collision cross section (N2) for each item. Keep answers brief.
# ASSAY CONDITIONS: [M+H]+; instrument: DT; single field, calibrated with Agilent tune mix (Agilent)
Give bare numbers, in Å².

Here's what some known entries look like.
NC[C@H](O)CC[C@H](N)C(=O)O [5-Hydroxy-L-lysine]; 135.1
C[N+](C)(C)C[C@H](O)CC(=O)[O-]; 133.1
COc1cc(/C=C/C(=O)CC(=O)/C=C/c2ccc(O)c(OC)c2)ccc1O; 201.6

Here are 2 compounds. What values of collision cross section (N2) were reported for them?
1. Cn1cncc1CCN
2. Nc1ccn([C@@H]2O[C@H](COP(=O)(O)OP(=O)(O)O)[C@@H](O)[C@H]2O)c(=O)n1

// result
1: 123.8; 2: 175.1

Here are 4 compounds. What values of collision cross section (N2) were reported for them?
1. C[C@H](CCC(=O)NCC(=O)O)[C@H]1CC[C@H]2[C@@H]3CC[C@@H]4C[C@H](O)CC[C@]4(C)[C@H]3CC[C@]12C
2. C[C@]12CC[C@H]3[C@@H](CCC4=CC(=O)CC[C@@]43C)[C@@H]1CC[C@@H]2O
3. COc1ccc2c(c1)[nH]c1c(C)nccc12
4. CC(=O)[C@H]1CC[C@H]2[C@@H]3CCC4=CC(=O)CC[C@]4(C)[C@H]3[C@@H](O)C[C@]12C [11beta-Hydroxyprogesterone]

// result
1. 200.9
2. 172.7
3. 146
4. 182.3

Here are 2 compounds. What values of collision cross section (N2) were reported for them?
1. O=C(O)CN(CCN(CC(=O)O)CC(=O)O)CC(=O)O
2. C[C@@H]1NC(=O)N[C@@H]1CCCCCC(=O)O

// result
159.6
144.1
